Test system: HOP-62 NSCLC
procedure text: NCI tumour cell line growth inhibition, 48 h; in the data active = GI50 below about 0.43 µM; inactive = the rest
Return exactly one item of TRUE for active, FALSE for inactive

{"compound": "C[C@]12CCc3sc(Nc4ccc(OC(F)(F)F)cc4)nc3C1=CC[C@@H]1[C@@H]2CC[C@]2(C)C(=O)CC[C@@H]12", "assigned class": "FALSE"}
{"compound": "COc1ccc2c(c1)NC1=C(C(=O)OC1)C2c1cc(OC)c(OC)c(OC)c1 (stereo unspecified)", "assigned class": "TRUE"}

Problem: What call does the record list for `CCOC(=O)[CH-]C(=O)C12CC3CC(CC(C3)C1)C2.CCOC(=O)[CH-]C(=O)C12CC3CC(CC(C3)C1)C2.CC[O-].CC[O-].[Ti+4]` ?
Result: FALSE

Problem: Could you check what this test reported for `O=C1NC(=S)S/C1=C/c1ccc2c(c1)OCO2` ?
Result: FALSE

Problem: I would be grateful if you could indicate the recorded call for `CCN1C(=O)/C(=C/c2c(Cl)[nH]c3cc(C)c(OC)cc23)c2ccccc21` .
Result: FALSE

Problem: Which result was noted for this compound in the test: CCCC(C)c1ccc(OCCCCCCN2CCNCC2)cc1 (stereo unspecified)
Result: FALSE
